# measurement description: Ratio of inhibition of Pseudomonas aeruginosa PAM 1032 KPC-2 assessed as minimum potentiating concentration of compound needed to reduce the MIC of biapenem by 64 fold to inhibition of Pseudomonas aeruginosa PAM 1154 KPC-2 assessed as assessed as minimum potentiating concentration of compound needed to reduce the MIC of biapenem by 64 fold
readout name: Ratio
Respond using a number only.

Consider the worked cases shown below.
[
  {
    "smi": "COc1ccc2c(c1C(=O)O)OB(O)[C@@H](NC(=O)CSC1CNC1)C2",
    "readout name": "Ratio",
    "experimental result": 1
  },
  {
    "smi": "O=C(CSC1CNC1)N[C@H]1Cc2cccc(C(=O)O)c2OB1O",
    "readout name": "Ratio",
    "experimental result": 1
  },
  {
    "smi": "O=C(CSC1CNC1)N[C@H]1Cc2ccc(F)c(C(=O)O)c2OB1O",
    "readout name": "Ratio",
    "experimental result": 1
  }
]

Find the recorded Ratio belonging to `COc1ccc2c(c1C(=O)O)OB(O)[C@@H](NC(=O)CSC)C2` and report it. 2

Consider next the compound `CSCC(=O)N[C@H]1Cc2ccc(O)c(C(=O)O)c2OB1O` in the same way. 16

Entry `O=C(Cc1cccs1)N[C@H]1Cc2ccc(F)c(C(=O)O)c2OB1O` please 4

And then `CSCC(=O)N[C@H]1Cc2cccc(C(=O)O)c2OB1O` , what is it? 8

Another compound: `O=C(Cc1cccs1)N[C@H]1Cc2cccc(C(=O)O)c2OB1O` 32

Same for `COc1ccc2c(c1C(=O)O)OB(O)[C@@H](NC(=O)Cc1cccs1)C2` 8

Also `CSCC(=O)N[C@H]1Cc2ccc(F)c(C(=O)O)c2OB1O` , if possible. 4

----------
# measurement description: Cmax in rat at 300 mg/kg, iv administered as infusion for 0.5 hrs by HPLC/MS analysis
# Format: ADME, organism-based
# Set-up: dose 300 mg/kg, route intravenous
# condition: in vivo
readout name: Cmax
# answer = value followed by unit

// returns reported Cmax for input `O=C(O)c1c(F)ccc2c1OB(O)[C@@H]1C[C@H]21` 544 µg/mL

----------
# system under test: Urokinase-type plasminogen activator (Homo sapiens, UniProt P00749)
readout name: IC50

Sample `O=C(O)c1c(F)ccc2c1OB(O)[C@@H]1C[C@H]21` — what was its IC50? > 1000 µM

----------
The molecules listed here are annotated with their Activity.
# Tested on: Pseudomonas aeruginosa
# measurement description: Inhibition of Pseudomonas aeruginosa PAM 1154 KPC-2 assessed as assessed as minimum potentiating concentration of compound needed to reduce the MIC of biapenem by 64 fold
Number only, in µg/mL; omit the unit.

Worked examples, 2 molecules total:
[
  {
    "smi": "O=C(Cc1cccs1)N[C@H]1Cc2cccc(C(=O)O)c2OB1O",
    "Activity / µg/mL": 2.5
  },
  {
    "smi": "CSCC(=O)N[C@H]1Cc2ccc(F)c(C(=O)O)c2OB1O",
    "Activity / µg/mL": 5
  }
]

// Activity lookup, key: `COc1ccc2c(c1C(=O)O)OB(O)[C@@H](NC(=O)CSC1CNC1)C2` 5

Another molecule to look at: `CSCC(=O)N[C@H]1Cc2ccc(O)c(C(=O)O)c2OB1O` 2.5

Repeat with `O=C(Cc1cccs1)N[C@H]1Cc2ccc(F)c(C(=O)O)c2OB1O` 10

And then `O=C(CSC1CNC1)N[C@H]1Cc2ccc(F)c(C(=O)O)c2OB1O` , what is it? 5

Now the molecule `COc1ccc2c(c1C(=O)O)OB(O)[C@@H](NC(=O)CSC)C2` 5

Continue with `COc1ccc2c(c1C(=O)O)OB(O)[C@@H](NC(=O)Cc1cccs1)C2` 5

Record: `CSCC(=O)N[C@H]1Cc2cccc(C(=O)O)c2OB1O` 5

Request: `O=C(CSC1CNC1)N[C@H]1Cc2cccc(C(=O)O)c2OB1O` 2.5
